tested on: RPMI-8226; experiment: NCI tumour cell line growth inhibition, 48 h
Calls of active or inactive are those of the source. Rule as the data show it: active = GI50 up to about 1.1 µM and inactive = higher. Where a SMILES comes first, the peptide text is derived from it. The star is where a group is joined. Boc = CC(C)(C)OC(=O)*
Quantity name: GI50

Solved cases (3 shown):
Compound | GI50
CN1C=C(C(N)=O)C2CC(O)[C@@](NC(=O)CS(N)(=O)=O)(C(=O)O)C2C1 (some centres undefined) | 18 µM (inactive)
C[C@@H]1C[C@@H](O)[C@@]2(O)C13CC(=O)OC(C3)[C@@H](C)[C@@]2(C)CO (some centres undefined) | > 100 µM (inactive)
Cc1occc1C(=S)Nc1ccc(Cl)c(C(=O)OC(C)C2CC2)c1 (centres undefined) | 24.8 µM (inactive)

--- query ---
Give GI50 (RPMI-8226) of the following compound: CCOC(=O)C(CC(C)C)NC(=O)C(Cc1ccccc1)NC(=O)CNC(=O)OC(C)(C)C (stereo not drawn) (Boc-Gly-Phe-Leu-OEt; configuration not given here)
20.9 µM (inactive)
